Experiment: Cytotoxicity against human MT4 cells assessed as reduction in cell viability incubated for 5 days by MTT assay
Type: toxicity, cell-based
Conditions: MT4 cells, time 5 day
endpoint name: CC50 at 120 h

Study these solved cases before continuing.
1. COc1ccc(-n2c(SCc3ccc(S(N)(=O)=O)cc3)nnc2[C@H](Cc2ccccc2)NC(=O)Cc2c(C)[nH]c3ccccc23)cc1 > 187 µM
2. COc1ccc(N(C)C(=O)[C@H](Cc2cc(F)cc(F)c2)NC(=O)CN(Cc2ccc(C#N)cc2)C(=O)Cc2cccc3ccccc23)cc1 > 189 µM
3. COc1ccc(N(C)C(=O)[C@H](Cc2cc(F)cc(F)c2)NC(=O)CN(Cc2ccccc2)C(=O)Cc2c(C)[nH]c3ccccc23)cc1 28.6 µM

Hello, I would appreciate it if you could give CC50 at 120 h for each entry below.
1. COc1ccc(N(C)C(=O)[C@H](Cc2cc(F)cc(F)c2)NC(=O)CN(Cc2ccc(F)cc2)C(=O)Cc2ccc(B(O)O)cc2)cc1
2. COc1ccc(N(C)C(=O)[C@H](Cc2cc(F)cc(F)c2)NC(=O)CN2CCN(C(=O)c3ccc(NC(C)=O)cc3)CC2=O)cc1

18.9 µM
196 µM

###

I'd appreciate it if you could supply selectivity ratio values for the items below.
Test: Selectivity index, ratio of CC50 for cytotoxicity against human MT4 cells to EC50 for antiviral activity against HIV2 ROD infected in human MT4 cells
Type: toxicity, cell-based
Conditions: read-out: Ratio CC50/EC50
Give bare numbers.

1) COc1ccc(N(C)C(=O)[C@H](Cc2cc(F)cc(F)c2)NC(=O)CN(Cc2ccc(F)cc2)C(=O)Cn2nc(C(F)(F)F)c3ccccc32)cc1 8

Hello, I would appreciate it if you could give selectivity ratio for each entry below.
1. COc1ccc(N(C)C(=O)[C@H](Cc2cc(F)cc(F)c2)NC(=O)CN(C(=O)Cc2c(C)[nH]c3ccccc23)C2CC2)cc1
2. COc1ccc(N(C)C(=O)[C@H](Cc2cc(F)cc(F)c2)NC(=O)CN2CCN(S(=O)(=O)c3ccccc3[N+](=O)[O-])CC2)cc1
3. COc1ccc(N(C)C(=O)[C@H](Cc2cc(F)cc(F)c2)NC(=O)CN2CCN(C(=O)Cc3c[nH]c4ccc(F)cc34)CC2=O)cc1
4. COc1ccc(N(C)C(=O)[C@H](Cc2cc(F)cc(F)c2)NC(=O)CN(Cc2ccc(C#N)cc2)C(=O)Cc2c[nH]c3ccc(F)cc23)cc1

1. 6
2. 79.7
3. 3.23
4. 26

Fill in the blank: the reported selectivity ratio of COc1ccc(N(C)C(=O)[C@H](Cc2ccccc2)NC(=O)CN2CCN(C(=O)Cc3c[nH]c4ccc(F)cc34)CC2=O)cc1 is ____.
19.9

###

Test: Cytotoxicity against human MT4 cells assessed as reduction in cell viability incubated for 5 days by MTT assay
Type: toxicity, cell-based
Conditions: MT4 cells, time 5 day
Binary call on CC50 at 120 h with cut-off 60 µM: strictly below means fulfilled, and equality or higher means not fulfilled.

Solved entries (count: 5):
1) COc1ccc(N(C)C(=O)[C@H](Cc2cc(F)cc(F)c2)NC(=O)CN2CCN(C(=O)Cc3c[nH]c4ccccc34)CC2=O)cc1 fulfilled
2) COc1ccc(N(C)C(=O)[C@H](Cc2cc(F)cc(F)c2)NC(=O)CN(Cc2ccc(F)cc2)C(=O)Cc2c[nH]c3ccc(Br)cc23)cc1 fulfilled
3) COc1ccc(C(=O)Nc2ccn(CC(=O)N[C@@H](Cc3ccccc3)C(=O)N(C)c3ccc(OC)cc3)c(=O)c2)cc1 fulfilled
4) C#CCSc1nnc([C@H](Cc2ccccc2)NC(=O)Cc2c(C)[nH]c3ccccc23)n1-c1ccc(OC)cc1 fulfilled
5) COc1ccc(-n2c(S)nnc2[C@H](Cc2ccccc2)NC(=O)Cc2c(C)[nH]c3ccccc23)cc1 not fulfilled

Item COc1ccc(N(C)C(=O)[C@H](Cc2ccccc2)NC(=O)Cn2ccc(N)cc2=O)cc1 : CC50 at 120 h beneath 60 µM, strictly?
not fulfilled

Item COc1ccc(N(C)C(=O)[C@H](Cc2cc(F)cc(F)c2)NC(=O)CN2CCN(C(=O)c3ccc(NC(=O)C4CC4)cc3)CC2=O)cc1 : CC50 at 120 h beneath 60 µM, strictly?
not fulfilled

###

Molecular target: Structural capsid protein (Human immunodeficiency virus 1, UniProt Q76129)
Sequence (Q76129 whole entry): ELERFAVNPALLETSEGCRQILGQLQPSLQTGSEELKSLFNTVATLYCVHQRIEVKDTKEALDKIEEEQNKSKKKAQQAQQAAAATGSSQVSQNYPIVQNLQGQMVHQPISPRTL
Assay: Binding affinity to HIV-1 NL4.3 hexameric capsid protein assessed as dissociation constant by SPR analysis
endpoint name: pKd
Numbers only, as −log10 of the molar value.

Item COc1ccc(N(C)C(=O)[C@H](Cc2ccccc2)NC(=O)Cc2c(C)[nH]c3ccccc23)cc1 with Structural capsid protein (Human immunodeficiency virus 1, UniProt Q76129) - pKd?
7.33

###

Assay: Selectivity index, ratio of CC50 for cytotoxicity against human MT4 cells to EC50 for antiviral activity against HIV2 ROD infected in human MT4 cells
Type: toxicity, cell-based
Conditions: read-out: Ratio CC50/EC50
I'd appreciate it if you could supply selectivity ratio values for the items below.

Study these solved cases before continuing.
1) COc1ccc(C(=O)Nc2ccn(CC(=O)N[C@@H](Cc3ccccc3)C(=O)N(C)c3ccc(OC)cc3)c(=O)c2)cc1 4.98
2) COc1ccc(N(C)C(=O)[C@H](Cc2ccccc2)NC(=O)Cn2ccc(NC(=O)c3cccc(F)c3)cc2=O)cc1 9.36
3) COc1ccc(N(C)C(=O)[C@H](Cc2cc(F)cc(F)c2)NC(=O)CN(Cc2ccccc2)C(=O)Cc2ccc3ccccc3c2)cc1 < 1
4) COc1ccc(-n2c(SCC(N)=O)nnc2[C@H](Cc2ccccc2)NC(=O)Cc2c(C)[nH]c3ccccc23)cc1 32
5) COc1ccc(N(C)C(=O)[C@H](Cc2cc(F)cc(F)c2)NC(=O)CN2CCN(C(=O)Cc3c[nH]c4ccc(Br)cc34)CC2=O)cc1 < 1
6) COc1ccc(N(C)C(=O)[C@H](Cc2cc(F)cc(F)c2)NC(=O)CN(Cc2ccc(C#N)cc2)C(=O)Cc2cccc3ccccc23)cc1 > 82

Fill in the blank: the reported selectivity ratio of COc1ccc(N(C)C(=O)[C@H](Cc2cc(F)cc(F)c2)NC(=O)CN2CCN(S(=O)(=O)c3ccc(F)cc3)CC2)cc1 is ____.
53.3

###

I'd appreciate it if you could supply Ratio EC50 values for the items below.
Assay: Selectivity ratio of EC50 for antiviral activity against HIV1 IIIB infected in human MT4 cells to EC50 for antiviral activity against HIV2 ROD infected in human MT4 cells
Format: toxicity, cell-based
One number for each entry.

Study these solved cases before continuing.
1) Nc1ccc(S(=O)(=O)N2CCN(CC(=O)N[C@@H](Cc3ccccc3)c3nc4ccccc4c(=O)n3-c3ccc(S(=O)(=O)N4CCOCC4)cc3)CC2)cc1 1.5
2) COc1ccc(N(C)C(=O)[C@H](Cc2ccccc2)NC(=O)CN2CCN(C(=O)Cc3c(C)[nH]c4ccccc34)CC2=O)cc1 1.84
3) COc1ccc(-n2c([C@H](Cc3ccccc3)NC(=O)CN3CCN(S(=O)(=O)c4ccc(N)cc4)CC3)nc3cc(Cl)ccc3c2=O)cc1 6.1
4) COc1ccc(-n2c(SCc3ccncc3)nnc2[C@H](Cc2ccccc2)NC(=O)Cc2c(C)[nH]c3ccccc23)cc1 0.68
5) COc1ccc(N(C)C(=O)[C@H](Cc2cc(F)cc(F)c2)NC(=O)CN2CCN(S(=O)(=O)c3ccc(C)cc3)CC2)cc1 7.58

Hello, I would appreciate it if you could give Ratio EC50 for each entry below.
1. COc1ccc(-n2c([C@H](Cc3cc(F)cc(F)c3)NC(=O)CN3CCN(S(=O)(=O)c4ccc([N+](=O)[O-])cc4)CC3)nc3cc(Cl)ccc3c2=O)cc1
2. COc1ccc(-n2c([C@H](Cc3ccccc3)NC(=O)CN3CCN(S(=O)(=O)c4ccc([N+](=O)[O-])cc4)CC3)nc3cc(F)ccc3c2=O)cc1

1: 1.48; 2: 3.55

###

I'd appreciate it if you could supply log10 of EC50 values for the items below.
Test system: Human immunodeficiency virus 1
Assay: Antiviral activity against HIV1 IIIB infected in human MT4 cells assessed as reduction in virus induced cytopathic effect measured after 5 days by MTT assay
Type: functional, organism-based
Settings: Human immunodeficiency virus 1, IIIB, MT4, 120 h
A value of 2 here means EC50 of 100 in nM, since values are log10.

Study these solved cases before continuing.
1) COc1ccc(N(C)C(=O)[C@H](Cc2cc(F)cc(F)c2)NC(=O)CN2CCN(C(=O)c3ccc(NC(=O)C4CC4)cc3)CC2=O)cc1 4.16
2) COc1ccc(-n2c([C@H](Cc3cc(F)cc(F)c3)NC(=O)CN3CCN(S(=O)(=O)c4ccc(N)cc4)CC3)nc3cc(S(C)(=O)=O)ccc3c2=O)cc1 2.83
3) O=C(CN1CCN(S(=O)(=O)c2ccc([N+](=O)[O-])cc2)CC1)N[C@@H](Cc1cc(F)cc(F)c1)c1nc2ccccc2c(=O)n1-c1ccc(S(=O)(=O)N2CCS(=O)(=O)CC2)cc1 3.48
4) COc1ccc(-n2c([C@H](Cc3ccccc3)NC(=O)CN3CCN(S(=O)(=O)c4ccc([N+](=O)[O-])cc4)CC3=O)nc3ccccc3c2=O)cc1 3.18
5) COc1ccc(N(C)C(=O)[C@H](Cc2cc(F)cc(F)c2)NC(=O)CN(Cc2ccc(F)cc2)C(=O)Cc2c(C)[nH]c3ccccc23)cc1 3.45

Okay, next one:
Fill in the blank: the reported log10 of EC50 of COc1ccc(-n2c(SCc3ccc(S(N)(=O)=O)cc3)nnc2[C@H](Cc2ccccc2)NC(=O)Cc2c(C)[nH]c3ccccc23)cc1 is ____.
3.39

Entry source: ChEMBL document CHEMBL5344428
